experiment: Water solubility test of cannabinoid:glucosamine complexes and pure cannabinoids (HPLC of supernatant); type: physicochemical; settings: thermodynamic from solid; 1-1.5 mg sample in 1 mL distilled water, stirred 5-10 min, centrifuged, HPLC; printed as greater-than/less-than bounds; read-out: Water solubility of cannabinoid
So I've got a bunch of compounds here, and I need their solubility values.

Incoming: Provide measured solubility value, entry: C=C(C)[C@@H]1CCC(C)=C[C@H]1c1c(O)cc(CCCCC)c(C(=O)O)c1O
Outgoing: < 2 µg/mL

Could you now consider this next compound?
Incoming: Provide measured solubility value, entry: C=C(C)[C@@H]1CCC(C)=C[C@H]1c1c(O)cc(CCCCC)cc1O
Outgoing: < 1 µg/mL
